- Test Target: β-xylosidase BxTW1 (rBxTW1) (Talaromyces amestolkiae, UniProt A0A0H3W535)
- Sequence (A0A0H3W535 22-797): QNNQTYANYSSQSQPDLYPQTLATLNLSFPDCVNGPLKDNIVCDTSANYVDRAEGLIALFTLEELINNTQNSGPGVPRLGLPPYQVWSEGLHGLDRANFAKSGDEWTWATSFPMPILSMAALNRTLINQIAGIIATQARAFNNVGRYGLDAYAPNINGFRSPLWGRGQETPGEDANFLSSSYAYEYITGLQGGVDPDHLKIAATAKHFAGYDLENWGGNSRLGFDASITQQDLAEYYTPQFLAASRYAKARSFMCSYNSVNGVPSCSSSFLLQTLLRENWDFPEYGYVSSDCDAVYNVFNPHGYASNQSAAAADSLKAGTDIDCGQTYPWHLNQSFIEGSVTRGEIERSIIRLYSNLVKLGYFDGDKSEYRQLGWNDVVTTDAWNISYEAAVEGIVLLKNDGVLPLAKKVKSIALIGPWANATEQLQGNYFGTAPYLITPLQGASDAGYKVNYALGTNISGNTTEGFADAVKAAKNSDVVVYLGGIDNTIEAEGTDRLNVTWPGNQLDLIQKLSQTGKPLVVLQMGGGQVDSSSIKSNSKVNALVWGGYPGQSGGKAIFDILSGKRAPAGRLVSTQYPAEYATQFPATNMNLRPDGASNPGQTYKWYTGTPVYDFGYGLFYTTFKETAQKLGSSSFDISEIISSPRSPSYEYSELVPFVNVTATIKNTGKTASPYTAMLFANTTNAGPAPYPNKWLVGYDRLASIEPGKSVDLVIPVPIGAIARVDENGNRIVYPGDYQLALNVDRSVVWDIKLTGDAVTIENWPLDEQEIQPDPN
Reported Metric: Ki (µM)
Numbers only; they are read as µM.

### Prompt Give Ki only, for OC1OC[C@@H](O)[C@H](O)[C@H]1O (stereo partly shown) , using β-xylosidase BxTW1 (rBxTW1) (Talaromyces amestolkiae, UniProt A0A0H3W535) data.
### Response 1700
